Procedure Summary: Phase 1 single-dose plasma pharmacokinetics in subjects with normal hepatic function, mild or moderate hepatic impairment
Type: in vivo, human
Experimental Context: human, plasma, po, 200 mg, Moderate Hepatic Impairment; 4 h; 200 mg single oral dose; read-out: Plasma concentration, Arithmetic Mean
Measure: concentration at 4 h (ng/mL)

# Smiles Entry, Result Number
records = [
    ("N#CC1(c2ccc(NC(=O)c3cccnc3NCc3ccncc3)cc2)CCCC1", 134),
]

---

Procedure Summary: Phase 1 study: unbound plasma concentration and fraction unbound (protein binding)
Type: in vivo, human
Experimental Context: human, plasma, po, 200 mg, Moderate Hepatic Impairment; 4 h; 200 mg single oral dose; read-out: Unbound Concentration, Median

# Smiles Entry, Quantity Unit, concentration at 4 h
measured = [
    ("N#CC1(c2ccc(NC(=O)c3cccnc3NCc3ccncc3)cc2)CCCC1", "ng/mL", 4.15),
]
